Field: binding signal. Provide a value for each of the sequences that follow.
experimental-target: OsWOX13 (Oryza sativa, UniProt Q5QMM3 1-267)
Sequence: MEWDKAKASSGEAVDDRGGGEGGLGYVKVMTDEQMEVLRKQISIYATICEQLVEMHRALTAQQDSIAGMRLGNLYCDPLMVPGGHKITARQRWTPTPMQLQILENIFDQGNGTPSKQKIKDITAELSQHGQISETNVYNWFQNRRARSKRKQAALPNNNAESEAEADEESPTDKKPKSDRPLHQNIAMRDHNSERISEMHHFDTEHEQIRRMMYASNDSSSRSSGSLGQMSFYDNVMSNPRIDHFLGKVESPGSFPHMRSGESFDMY
protocol-notes: protein-binding microarray (RPBM); PBS, 2% BSA, 51.3 ng/ul salmon testes DNA, 50 uM zinc acetate, 200 nM TF, 25 C, 1 h; high values mean tight binding
settings: protein: recombinant; tags: N-terminal polyhistidine and DsRed monomer fusion (pET32a); label: CyDye5-dUTP incorporated in the synthesized complementary strand; 3' TTTTT single-stranded linker to array surface; dsDNA, one strand shown
The full ranking holds about 35,000 sequences; the median of “fluorescence intensity (a.u.)” is about 10,000, and the highest 2% start at about 52,000. For the sample, the highest values were picked, then their nearest neighbours and some sequences at random.

Would you please look over these solved cases?
GTGATTGAAATGGATCCTGGTCGGAAATGAATCCTGGTCGCGGAGTCACCTAGTGCAG | 43700 fluorescence intensity (a.u.)
GCAGCCTAGATTGACAATAGATGAATTGGAGCTAGTAGTGCGGAGTCACCTAGTGCAG | 35400 fluorescence intensity (a.u.)
CCATTGATTATAATTAAAGACTGTTAGGCAATTGACACAACGGAGTCACCTAGTGCAG | 54000 fluorescence intensity (a.u.)

For every item in the list below, what is its measured binding signal?
1. GATGATGGATTGGAAAGGCAAGTAAGCTGGAGTAGGTGGTCGGAGTCACCTAGTGCAG
2. CTTTATAAATTGTGTCATCTACTCATGTGTGGTAGGTCAACGGAGTCACCTAGTGCAG
3. TGAAATTTCTCTTCATTTTGTTTTAAATCCTGGACAGACACGGAGTCACCTAGTGCAG
4. CCTGATTAATTGTTAATTTTGCTGATGCAGCTGTTGCTTGCGGAGTCACCTAGTGCAG
5. ATAGATGAAGAATAAATATGATTGGTAGAGAAGAGAGATGCGGAGTCACCTAGTGCAG
6. TGTTAATCTTGCTGATTTTGTTATTGATTTTAATGCTATGCGGAGTCACCTAGTGCAG
7. CTGATTAGCATGCAGGATAGGAACTGATCTGTACTTGTCGCGGAGTCACCTAGTGCAG
8. GGAACAGGTACCATAATTGTTAATAACCTAATACTGGGCCCGGAGTCACCTAGTGCAG

38000 fluorescence intensity (a.u.)
5450 fluorescence intensity (a.u.)
3370 fluorescence intensity (a.u.)
65000 fluorescence intensity (a.u.)
25600 fluorescence intensity (a.u.)
17300 fluorescence intensity (a.u.)
22300 fluorescence intensity (a.u.)
5270 fluorescence intensity (a.u.)

* * *

experimental-target: OsWOX13 (Oryza sativa, UniProt Q5QMM3 1-267)
Sequence: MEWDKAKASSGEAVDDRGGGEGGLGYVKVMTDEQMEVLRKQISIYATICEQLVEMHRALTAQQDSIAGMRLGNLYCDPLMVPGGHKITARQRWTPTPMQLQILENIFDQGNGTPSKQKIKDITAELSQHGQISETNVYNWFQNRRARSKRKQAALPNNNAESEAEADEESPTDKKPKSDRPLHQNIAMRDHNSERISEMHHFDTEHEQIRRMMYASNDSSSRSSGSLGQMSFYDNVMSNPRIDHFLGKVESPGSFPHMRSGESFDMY
protocol-notes: protein-binding microarray (RPBM); PBS, 2% BSA, 51.3 ng/ul salmon testes DNA, 50 uM zinc acetate, 200 nM TF, 25 C, 1 h; high values mean tight binding
settings: protein: recombinant; tags: N-terminal polyhistidine and DsRed monomer fusion (pET32a); label: CyDye5-dUTP incorporated in the synthesized complementary strand; 3' TTTTT single-stranded linker to array surface; dsDNA, one strand shown
Whole data set: some 35,000 sequences, median “fluorescence intensity (a.u.)” near 10,000, cut for the highest 2% near 52,000. For the sample, the highest values were picked, then their nearest neighbours and some sequences at random.
Assign binding signal to each entry below.

Reference set (6 entries):
GATGATTGATGGGAATATAGAGATCCCATGTTTTCCAGCTCGGAGTCACCTAGTGCAG | 61000 fluorescence intensity (a.u.)
TTGACTTAAATTATAATTTTAAACCATATATTATAATTGGCGGAGTCACCTAGTGCAG | 31400 fluorescence intensity (a.u.)
TCGTTCTTCATGGTTGGGGCTGATTAGGTTGATGAGATAGCGGAGTCACCTAGTGCAG | 3850 fluorescence intensity (a.u.)
TTTGGTTGGATTGGATTGGATTGGATTGGCTGCTTCCCTGCGGAGTCACCTAGTGCAG | 25000 fluorescence intensity (a.u.)
TCTTTGTCAATCTTGTTTGGTTGCTCAAATCTTTTGGTGGCGGAGTCACCTAGTGCAG | 7260 fluorescence intensity (a.u.)
CGGATCCCATTCAATCATTCATTCATGTCGGATTGATGCCCGGAGTCACCTAGTGCAG | 11800 fluorescence intensity (a.u.)

Report binding signal for each item below.
1. CTTTGTCTTTGTTTCTTGTTGATTGCAGGATCAAATCAACCGGAGTCACCTAGTGCAG
2. CCATCTGATTAGAGATTTGATCCTATACCTTCCTAAACATCGGAGTCACCTAGTGCAG
3. TCTGATTGGTACATGCTCACCTGGTTGGCTGGTTCTTCAGCGGAGTCACCTAGTGCAG
4. TAATAACTTATACTGATATTGATTACTCCCTCCATCCCTACGGAGTCACCTAGTGCAG
5. CTTGATTGTTCTTTCTTGCTCAAATGCCGGCCTGTGTTGGCGGAGTCACCTAGTGCAG

1: 5330 fluorescence intensity (a.u.); 2: 40700 fluorescence intensity (a.u.); 3: 53800 fluorescence intensity (a.u.); 4: 11800 fluorescence intensity (a.u.); 5: 53200 fluorescence intensity (a.u.)

// each sequence listed below needs its binding signal
1. ATGATTGATCCATGAATCCCATTATCCATCATCCTCGAGTCGGAGTCACCTAGTGCAG
2. TACACTAATTAATTAAGCATTAATCGTGGGAAGAGTAACGCGGAGTCACCTAGTGCAG
3. AGTGACCTCAATTGATCATTCCCTCATCCTTTAGTCAAGCCGGAGTCACCTAGTGCAG
4. ATCAATCAATCAATCAATCAGCAAAGAGCATCCCAAACAACGGAGTCACCTAGTGCAG

["63300 fluorescence intensity (a.u.)", "47000 fluorescence intensity (a.u.)", "3990 fluorescence intensity (a.u.)", "33900 fluorescence intensity (a.u.)"]

* * *

experimental-target: OsWOX13 (Oryza sativa, UniProt Q5QMM3 1-267)
Sequence: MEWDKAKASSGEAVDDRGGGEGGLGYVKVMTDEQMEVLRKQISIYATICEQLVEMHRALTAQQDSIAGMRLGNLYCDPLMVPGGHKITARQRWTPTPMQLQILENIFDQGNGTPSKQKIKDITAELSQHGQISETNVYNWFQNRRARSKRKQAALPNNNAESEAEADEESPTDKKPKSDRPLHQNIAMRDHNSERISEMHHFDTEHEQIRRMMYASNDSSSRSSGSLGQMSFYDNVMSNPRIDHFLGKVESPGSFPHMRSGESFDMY
protocol-notes: protein-binding microarray (RPBM); PBS, 2% BSA, 51.3 ng/ul salmon testes DNA, 50 uM zinc acetate, 200 nM TF, 25 C, 1 h; high values mean tight binding
settings: protein: recombinant; tags: N-terminal polyhistidine and DsRed monomer fusion (pET32a); label: CyDye5-dUTP incorporated in the synthesized complementary strand; 3' TTTTT single-stranded linker to array surface; dsDNA, one strand shown
Over roughly 35,000 sequences, “fluorescence intensity (a.u.)” has its median near 10,000; the highest 2% begin near 52,000. Only a selection was taken, and the highest values are over-represented in it overall.
What binding signal was measured for each of the following?

Observe how each entry below is paired with its result.
TGGTGGTGGTGGTGGTAGGGTTAGGGGTAGGAGGGGTCTCCGGAGTCACCTAGTGCAG | 8890 fluorescence intensity (a.u.)
CTGATGTGATTACGTCTATCCAGTATAATCCCTCTGGTTTCGGAGTCACCTAGTGCAG | 31700 fluorescence intensity (a.u.)
TCAAATAATTTCGGTCAGAAATTTCCGAAATTTTGGTAATCGGAGTCACCTAGTGCAG | 7080 fluorescence intensity (a.u.)
TTAAAATTAAACTTTTGCAGTCTTTCTAATTTGCCTCCTCCGGAGTCACCTAGTGCAG | 5220 fluorescence intensity (a.u.)
AAATAAATTTGAACTAAAATGAAAATTTGAAGGTATAGCACGGAGTCACCTAGTGCAG | 12600 fluorescence intensity (a.u.)
GAAAATTAGTAGAGAACTAATTAGGGATAAAGTCATTATTCGGAGTCACCTAGTGCAG | 13000 fluorescence intensity (a.u.)

// each listed sequence needs a value for binding signal
1. ACACAATCATTTATACAAAGCATATAATGGGCCTGTTCGGCGGAGTCACCTAGTGCAG
2. CCAATCACATTCACTTTTACAGTTTAGCCCCACCCTCTCCCGGAGTCACCTAGTGCAG
3. TTCACGCTTGATTGGGCTGGGATTAAGGCCCATTTATACACGGAGTCACCTAGTGCAG

6100 fluorescence intensity (a.u.)
4980 fluorescence intensity (a.u.)
23500 fluorescence intensity (a.u.)
